The reported numbers originate from ChEMBL document CHEMBL5550171.

Tested on: HCC1937
Method Notes: Antiproliferative activity against human HCC1937 cells assessed as reduction in cell viability incubated for 72 hrs by CCK-8 assay
Assay type: functional, cell-based
Study Conditions: HCC1937, 72 h
Result Type: IC50 (µM)
Provide the reading as a plain figure in µM.

Asked: For HCC1937, provide IC50 of O=C(CCCc1ccc(N(CCCl)CCCl)cc1)N1CCN(C(=O)c2cc(Cc3n[nH]c(=O)c4ccccc34)ccc2F)CC1 please.
Given back: 0.18

====

Tested on: Caco-2
Method Notes: Cytotoxicity against human Caco-2 cells assessed as inhibition of cell growth incubated for 72 hrs by CCK-8 assay
Assay type: functional, cell-based
Study Conditions: Caco-2, 72 h
Result Type: IC50 (nM)
Provide the reading as a plain figure in nM.

Asked: Consider the compound shown here: CCOC(=O)CO/N=C(\N)c1ccc(C)cc1 What is its recorded IC50?
Given back: 400

Asked: Consider the compound shown here: CCOC(=O)CO/N=C(\N)c1ccccc1 What is its recorded IC50?
Given back: 430
